assay: Binding affinity towards Opioid receptor delta 1 in guinea pig brain membranes using [3H]naltrindole as radioligand
Define the label as Yes when Ki is strictly less than 30 nM and as No in all remaining cases.

| compound | classLabel |
| --- | --- |
| Oc1ccc2c(c1)C[C@@H]1[C@@H]3CCCCC23CCN1CCc1ccccc1 | Yes |
| COCCN1CCC23CCCC[C@H]2[C@H]1Cc1cc(O)ccc13 [MCL-110] | Yes |
| CCOCCN1CCC23CCCC[C@H]2[C@H]1Cc1cc(O)ccc13 | Yes |
| Oc1ccc2c(c1)C[C@@H]1[C@@H]3CCCCC23CCN1CCC(O)c1cccs1 (stereo partly specified) [MCL-122] | No |
| Oc1ccc2c(c1)C[C@@H]1[C@@H]3CCCCC23CCN1CCC(F)(F)F | Yes |
| CC(C)CN1CCC23CCCC[C@H]2[C@H]1Cc1cc(O)ccc13 [MCL-108] | Yes |
| O=C(CCN1CCC23CCCC[C@H]2[C@H]1Cc1cc(O)ccc13)c1ccccc1 | Yes |
| Oc1ccc2c(c1)C[C@@H]1[C@@H]3CCCCC23CCN1CCCF | Yes |
| Oc1ccc2c(c1)C[C@@H]1[C@@H]3CCCCC23CCN1CCC(O)c1ccccc1 (stereo partly specified) [MCL-121] | No |
| N#CCCCN1CCC23CCCC[C@H]2[C@H]1Cc1cc(O)ccc13 | Yes |
| Oc1ccc2c(c1)C[C@@H]1[C@@H]3CCCCC23CCN1CC1CCCCC1 | No |
| O=C(CCN1CCC23CCCC[C@H]2[C@H]1Cc1cc(O)ccc13)c1cccs1 | Yes |
| Oc1ccc2c(c1)C[C@@H]1[C@@H]3CCCCC23CCN1Cc1ccccc1 | No |
| Oc1ccc2c(c1)C[C@@H]1[C@@H]3CCCCC23CCN1CCOc1ccccc1 [MCL-127] | No |
| O=C(CCN1CCC23CCCC[C@H]2[C@H]1Cc1cc(O)ccc13)c1ccco1 | No |
| N#CCCN1CCC23CCCC[C@H]2[C@H]1Cc1cc(O)ccc13 | Yes |
| C=CCN1CCC23CCCC[C@H]2[C@H]1Cc1cc(O)ccc13 | Yes |
| Oc1ccc2c(c1)C[C@@H]1[C@@H]3CCCC[C@]23CCN1C/C=C/I | Yes |
| Oc1ccc2c(c1)C[C@@H]1[C@@H]3CCCCC23CCN1CC1CCCC1 | Yes |
| Oc1ccc2c(c1)C[C@@H]1[C@@H]3CCCCC23CCN1Cc1ccco1 [MCL-119] | Yes |
| Oc1ccc2c(c1)C[C@@H]1[C@@H]3CCCCC23CCN1CCC(O)c1ccco1 (stereo partly specified) | Yes |
